Reference source: paper PMC6517398

system: T1, OFA/iLRP extracellular epitope peptide (UniProt P08865)
T1 chain: NQIQAAFREPR
experiment.notes: flow cytometry of coated beads; PBS (pH not stated), 200 uL, 30 min, room temperature; 2x10^5 coated beads with 20-40 pmol FAM-ssDNA (cells: 40-60 pmol); washed once or twice with PBS
test.context: label: FAM (5' in selection primer); single strand, 59 nt
reported.metric: pKd
Kindly note that pKd refers to -log10 of the concentration in mol/L and answer with the value alone.

*Q* Would you mind telling me what pKd value was observed for AB3 (ssDNA) DNA: TGCGTGTGTAGTGTGTCTGTTGTTTGTATTGTTGTCTATCCTCTTAGGGATTTGGGCGG ?
*A* 6.99
